Measured TGI by item
# System: SR leukemia
# runDescription: NCI tumour cell line growth inhibition, 48 h

# compound, targetEntity, TGI
data = [
    ("C=CC1(c2ccc(Cl)c(Cl)c2)OCCO1", "SR leukemia", "> 100 µM"),
    ("CCC(C#N)N(Cc1ccc(CN(C(=O)c2ccccc2)C(C#N)CC)cc1)C(=O)c1ccccc1 (stereo not drawn)", "SR leukemia", "> 100 µM"),
    ("CCN(CC)C(=O)C1=C(C)NC(C)=C(C(=O)N(CC)CC)C1", "SR leukemia", "> 100 µM"),
    ("CCS(=O)(=O)c1ccc(OC)c(Nc2ncc(-c3cccc(-c4ccccc4F)c3)o2)c1", "SR leukemia", "> 25 µM"),
    ("O=C1OC(C2Cc3cc4c(cc3C2=O)CCC4)c2ccccc21 (stereo not drawn)", "SR leukemia", "> 100 µM"),
    ("C=CCOC1=C2CC[C@H](O)[C@@]2(C)CCC1=O", "SR leukemia", "> 100 µM"),
    ("CC(=O)Oc1ccn2nc(C)c(Cc3c(C)nn4ccc(OC(C)=O)cc34)c2c1", "SR leukemia", "> 100 µM"),
    ("COc1cccc(/C=N/[N-]C(N)=O)c1[O-].[Cu+2].[OH3+].c1cnc2c(c1)ccc1cccnc12", "SR leukemia", "> 100 µM"),
    ("CNC(=S)NNC(=O)c1c(C)nc2sccn12", "SR leukemia", "> 100 µM"),
    ("NC(N)=NS(=O)(=O)c1ccc(Nc2c3ccccc3nc3ccc(C(=O)Nc4ccc(S(N)(=O)=O)cc4)cc23)cc1", "SR leukemia", "> 100 µM"),
    ("O=C(/C=C/c1ccccc1Cl)c1ccc(O)cc1", "SR leukemia", "> 24.4 µM"),
    ("Cc1ccccc1NC(=O)N/C(N)=N/c1nc2ccccc2s1", "SR leukemia", "> 100 µM"),
    ("C/C(=C\\CNc1ncnc2nc(Cl)[nH]c12)CO", "SR leukemia", "> 100 µM"),
]

###

Recorded TGI values for a group of compounds are listed next.
# System: RXF 393 renal
# runDescription: NCI tumour cell line growth inhibition, 48 h

# compound, TGI
data = [
    ("O=C(O)c1cnccc1-c1cc(=O)[nH]n1-c1ccccc1", "> 100 µM"),
    ("C[C@@]12CCC[C@@](C)(C(=O)O)C1CC[C@]13C=C(CO)[C@](O)(CCC12)C3 (stereo partly drawn)", "> 100 µM"),
    ("CN(C)S(=O)(=O)n1ccnc1", "> 100 µM"),
    ("CCC(C)[C@H]1C(=O)N=C(N)N1C(=O)OCc1ccccc1 (stereo partly drawn)", "> 100 µM"),
    ("O=C1OCC2=C1C(c1cccc([N+](=O)[O-])c1)c1cc3c(cc1N2CCO)CCC3 (stereo not drawn)", "> 50 µM"),
    ("CSc1sc(C)cc1-c1nsc(=O)o1", "> 100 µM"),
    ("Cc1cc2c(cc1Cl)SC(NN(C)C)=NS2(=O)=O", "> 10 µM"),
    ("O=c1oc2c(Br)c(O)c(Br)cc2c2ccccc12", "> 100 µM"),
    ("Brc1ccc(-c2ccc(-c3ccc(-c4ccc(Br)s4)s3)s2)s1", "> 100 µM"),
    ("COC(=O)C(CCC1(C)OCCO1)C(C)=O (stereo not drawn)", "> 100 µM"),
    ("Cc1ccc(NC(=O)C2C(=O)C(=O)N(c3ccc(C)cc3)C2=O)cc1 (stereo not drawn)", "> 100 µM"),
    ("O=C(O)C(F)(OC(F)(F)C(F)(F)C(F)(F)F)C(F)(F)F (stereo not drawn)", "> 100 µM"),
    ("Clc1ccc(NCc2nnc(COc3ccc(OCc4nnc(CNc5ccc(Cl)cc5)o4)c(Cl)c3)o2)cc1", "> 100 µM"),
]

###

This section presents compounds with their documented log10 TGI values.
# System: MCF7 breast
# runDescription: NCI tumour cell line growth inhibition, 48 h
propertyLabel: log10 TGI (log10 of the value in µM)

# compound, log10 TGI
records = [
    ("COc1ccccc1/C=C1\\CCC(CN(C)C)C1=O (configuration not stated)", 0.77),
    ("COC(=O)c1c2c(c[n+]([O-])c1C)C(=O)C(NCc1ccccc1)=CC2=O", -0.14),
    ("CCC(C#N)N(Cc1ccc(CN(C(=O)c2ccccc2)C(C#N)CC)cc1)C(=O)c1ccccc1 (configuration not stated)", 1.97),
    ("CC(C)c1ccc2c(c1)[C@@]1(C)CC[C@H](C)C(C)(C)C1CC2 (some centres not stated)", 1.51),
    ("CC(C)(C)OC(=O)N1C(C2=COc3ccccc3O2)=COc2cccnc21", 0.49),
    ("COC1OC(C(=O)CP(=O)(OC)OC)C(OCc2ccccc2)C(OCc2ccccc2)C1OCc1ccccc1 (configuration not stated)", 1.48),
    ("CCOC(=O)C(Cc1ccc(OC(=O)c2ccc(OC)cc2OC)cc1)NC(=O)C(F)(F)F (configuration not stated)", 1.68),
    ("O=C(Nc1cccc(-n2cc(-c3ccncc3)c(-c3cc(O)cc(Cl)c3)n2)c1)Nc1ccc(Cl)c(Cl)c1", 0.99),
    ("O=[N+]([O-])c1ccc(Oc2cccnc2)c([N+](=O)[O-])c1", 1.25),
    ("CC(=O)OCC1OC(O[C@@H]2C[C@H]3C(C)(C)[C@H](OC(C)=O)CC[C@]3(C)[C@H]3CC[C@@]45C[C@H](O)C[C@H](C)[C@@H]4CC=C5[C@@]32C)C(O)C(O)C1O (some centres not stated)", 1.04),
    ("CC(C)Cc1ccc(C(C)/C=C2\\CCC(CN3CCOCC3)C2=O)cc1 (configuration not stated)", 1.30),
]

###

Item-by-item account of TGI
# Test system: A549 NSCLC
# runDescription: NCI tumour cell line growth inhibition, 48 h
propertyLabel: TGI

# molecule, propertyLabel, observed
rows = [
    ("COc1cccc(C2=NN(C(C)=O)C(c3cc(OC)c(OC)c(OC)c3)C2)c1 (stereo not given)", "TGI", "> 100 µM"),
    ("CN(C)S(=O)(=O)n1ccnc1", "TGI", "> 100 µM"),
    ("Oc1c(Cl)ccc2cccnc12", "TGI", "> 100 µM"),
    ("COC(=O)C1=C2C3=C(C(=O)c4ccccc4C3=O)N(Cc3ccccc3)C2(OC(C)=O)C=CC1=O (stereo not given)", "TGI", "> 100 µM"),
    ("COc1ccc(Cc2nc3cc(Cl)ccc3o2)cc1", "TGI", "> 100 µM"),
]

###

TGI values by entry
# System: HS 578T breast
# runDescription: NCI tumour cell line growth inhibition, 48 h

# smilesNotation, TGI
rows = [
    ("Brc1ccc(-c2ccc(-c3ccc(-c4ccc(Br)s4)s3)s2)s1", "> 100 µM"),
    ("C/C(=C/CNc1ncnc2c1ncn2CCC(=O)O)CO", "> 100 µM"),
    ("COc1ccc(C2=C(Br)C(=O)OC2)cc1Cl", "> 88.5 µM"),
    ("CC(=O)Oc1ccn2nc(C)c(Cc3c(C)nn4ccc(OC(C)=O)cc34)c2c1", "> 100 µM"),
    ("S=C(Nc1ccc(-c2nc3ccccc3s2)cc1)Nc1ccccn1", "59.2 µM"),
]

###

# System: EKVX NSCLC
# runDescription: NCI tumour cell line growth inhibition, 48 h
Each entry below lists one item and its recorded TGI value.
propertyLabel: TGI

# molecule, observed
records = [
    ("Cc1cc(O)c2c(c1O)C(=O)c1c(O)ccc(O)c1C2=O", "> 100 µM"),
    ("O=C1OCC2=C1C(c1ccccc1)c1cc3c(cc1N2CCO)CCC3 (stereo not drawn)", "> 25 µM"),
    ("N#Cc1ccc(Nc2cnc3cc(N)ccc3n2)cc1", "> 100 µM"),
]

###

# System: SNB-19 CNS
# runDescription: NCI tumour cell line growth inhibition, 48 h; in the data active = GI50 below about 0.43 µM; inactive = the rest
Outcome codes: label 1 for active, label 0 for inactive

# molecule, discreteLabel
rows = [
    ("CC(C)[C@@H]1NC(=O)[C@]2(C)CSC(=N2)c2csc(n2)CNC(=O)C[C@@H](/C=C/CCS)OC1=O", "label 1"),
    ("Cc1oncc1C(=O)Nc1ccc(C(F)(F)F)cc1", "label 0"),
    ("Cc1cc(N2CCOCC2)nc(N(CCCNc2ccnc3cc(Cl)ccc23)Cc2ccc3c(c2)OCO3)n1", "label 0"),
    ("CN(C)c1cc2c(Nc3ccc4nc(Cc5ccccc5)[nH]c4c3)ncnc2cn1", "label 0"),
    ("Oc1c(Cl)cc(C(c2cc(Cl)c(O)c(Cl)c2)C(c2cc(Cl)c(O)c(Cl)c2)c2cc(Cl)c(O)c(Cl)c2)cc1Cl", "label 0"),
    ("O=C(Nc1cccnc1)c1cccs1", "label 0"),
    ("CCS(=O)(=O)c1ccc(OC)c(Nc2ncc(-c3cccc(-c4ccccc4F)c3)o2)c1", "label 0"),
    ("CN(C)c1cc2c(cc1Sc1nc3c(N)nccc3n1CCNCC(C)(C)C)OCO2", "label 0"),
    ("O=C1OCC2=C1C(c1ccccc1)c1cc3c(cc1N2CCO)CCC3 (stereo unspecified)", "label 1"),
    ("Nc1nn(C(=O)Nc2ccc(Cc3ccccc3)cc2)c2ccc(Cl)cc12", "label 0"),
    ("Clc1ccc(N/N=C/c2ccccn2)nc1", "label 0"),
]
